Target: PDGFR-α (Homo sapiens, UniProt P16234)
Sequence (P16234 24-1089): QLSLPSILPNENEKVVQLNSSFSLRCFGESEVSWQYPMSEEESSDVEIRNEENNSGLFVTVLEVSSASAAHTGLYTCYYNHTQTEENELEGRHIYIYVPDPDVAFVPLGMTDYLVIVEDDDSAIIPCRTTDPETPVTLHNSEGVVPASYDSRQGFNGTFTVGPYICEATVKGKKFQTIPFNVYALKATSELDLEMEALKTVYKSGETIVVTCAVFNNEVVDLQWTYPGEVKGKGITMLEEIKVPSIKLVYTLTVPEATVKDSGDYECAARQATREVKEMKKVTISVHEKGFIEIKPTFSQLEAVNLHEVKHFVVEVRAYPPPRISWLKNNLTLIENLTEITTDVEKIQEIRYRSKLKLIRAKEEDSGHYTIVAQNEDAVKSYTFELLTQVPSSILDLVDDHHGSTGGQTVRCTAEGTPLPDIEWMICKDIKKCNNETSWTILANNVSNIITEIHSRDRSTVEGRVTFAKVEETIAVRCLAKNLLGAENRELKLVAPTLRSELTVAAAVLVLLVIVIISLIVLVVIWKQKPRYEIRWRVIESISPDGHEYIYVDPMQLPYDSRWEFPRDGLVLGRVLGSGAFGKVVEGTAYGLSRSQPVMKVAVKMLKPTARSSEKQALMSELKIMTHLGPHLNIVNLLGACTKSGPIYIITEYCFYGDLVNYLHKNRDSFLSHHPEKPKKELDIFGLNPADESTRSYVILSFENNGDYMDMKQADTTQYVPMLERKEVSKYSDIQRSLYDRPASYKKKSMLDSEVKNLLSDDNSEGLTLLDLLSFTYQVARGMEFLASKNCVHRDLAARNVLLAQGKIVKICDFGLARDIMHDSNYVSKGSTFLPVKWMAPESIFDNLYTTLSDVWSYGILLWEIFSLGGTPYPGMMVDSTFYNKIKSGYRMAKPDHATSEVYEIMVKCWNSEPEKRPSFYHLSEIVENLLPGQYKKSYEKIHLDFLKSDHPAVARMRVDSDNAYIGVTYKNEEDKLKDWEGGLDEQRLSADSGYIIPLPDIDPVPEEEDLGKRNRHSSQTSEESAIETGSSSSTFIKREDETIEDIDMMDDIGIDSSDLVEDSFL
Assay: PDGFR-α in vitro kinase activity assay (HTRF kinEASE TK)
Format: biochemical
Settings: compound 10 nM; read-out: PDGFRα inhibition rate, 10 nM
Measurement Kind: inhibition at 0.01 µM (%)
Answer in %, number only, no unit symbol.

>  <Molecule>
Cn1cc(-c2cncc(O[C@H]3CCc4c(C(=O)Nc5cccc(C6CC6)c5)cccc43)c2)cn1 [Compound 19b]

>  <inhibition at 0.01 µM (%)>
22.9

$$$$
>  <Molecule>
Cn1cc2ncc(O[C@H]3CCc4c(C(=O)Nc5cncc(Cl)c5)cccc43)cc2n1 [Compound 76ai]

>  <inhibition at 0.01 µM (%)>
37.8

$$$$
>  <Molecule>
Cc1cccc(NC(=O)c2cccc3c2CC[C@@H]3Nc2cncc(-c3cnn(C)c3)c2)c1 [Compound 13]

>  <inhibition at 0.01 µM (%)>
78.7

$$$$
>  <Molecule>
Cn1cc(-c2cncc(N[C@H]3CCc4c(Nc5noc(C(C)(C)C)n5)cccc43)c2)cn1 [Compound 42o]

>  <inhibition at 0.01 µM (%)>
15.4

$$$$
>  <Molecule>
CN(c1cnc2cn(C)nc2c1)[C@H]1CCc2c(C(=O)Nc3cncc(Cl)c3)cccc21 [Compound 80k]

>  <inhibition at 0.01 µM (%)>
19

$$$$

Lookup: Hi! What's the reported inhibition at 0.01 µM for CN(c1cncc(-c2cnn(C)c2)c1)[C@H]1CCc2c(C(=O)Nc3cncc(Cl)c3)cccc21 [Compound 21] on PDGFR-α (Homo sapiens, UniProt P16234)?
Found: 7.7

Lookup: Please provide the recorded inhibition at 0.01 µM for CN(C)Cc1cncc(NC(=O)c2cccc3c2CC[C@@H]3Oc2cncc(-c3cnn(C)c3)c2)c1 [Compound 19h] , tested on PDGFR-α (Homo sapiens, UniProt P16234).
Found: 3.8

Lookup: Return inhibition at 0.01 µM measured with PDGFR-α (Homo sapiens, UniProt P16234) given this molecule: Cn1cc(-c2cncc(N[C@H]3CCc4c(C(=O)Nc5nn(C)c6ccccc56)cccc43)n2)cn1 [Compound 27g]
Found: 94.7

Lookup: Can you look up inhibition at 0.01 µM on PDGFR-α (Homo sapiens, UniProt P16234) for Cn1ncc2ncc(O[C@H]3CCc4c(C(=O)Nc5cncc(Cl)c5)cccc43)cc21 [Compound 76ac] ?
Found: 13.7

Lookup: Item: Cn1cc2ncc(O[C@H]3CCc4c(C(=O)Nc5nn(C)c6ccccc56)cccc43)cc2n1 [Compound 76al] Test system: PDGFR-α (Homo sapiens, UniProt P16234) Read-out: inhibition at 0.01 µM Value: ?
Found: 97.6

Lookup: What value of inhibition at 0.01 µM on PDGFR-α (Homo sapiens, UniProt P16234) does CN1CCc2ccc(NC(=O)c3cccc4c3CC[C@@H]4Nc3cncc(-c4cnn(C)c4)c3)cc2C1 [Compound 14ap] have?
Found: 72.8

Lookup: Give inhibition at 0.01 µM (PDGFR-α (Homo sapiens, UniProt P16234)) of the following molecule: CN(c1cnc2cn(C)nc2c1)[C@H]1CCc2c(C(=O)Nc3nn(C)c4ccccc34)cccc21 [Compound 80l]
Found: 69.1
